- studyTarget: T1, soluble human FcRn (human, UniProt P55899 24-297; P61769 21-119, biotinylated (Sulfo-NHS-LC-Biotin) in the ELISA; amine-coupled to CM5 chip in SPR)
- T1 construct: also called shFcRn; biotinylated shFcRn
- testMethodNotes: SPR, pH 7.4
assayEndpoint: Kd (µM)

[[record]]
binder = "QRFXTGHFGHLYPCNGP (Pen at 4; D-His at 10; disulfide; C-terminal amide) [Peptide No. 42]"
readingunit = "µM"
numericreadout = 20


P. QRFXTGHFGILYPCNGP (Pen at 4; D-Ile at 10; disulfide; C-terminal amide) [Peptide No. 43]
Q. QRFXTGHFGPLYPCNGP (Pen at 4; D-Pro at 10; disulfide; C-terminal amide) [Peptide No. 40]
Input: Between P and Q , which one has the lower reported Kd value? Could you answer with the label of the item you picked?
Output: Q
(Q: 1.1 µM, P: 41 µM)
